test system: Escherichia coli ATCC 25922; test: Oral formulations on mice with systemic bacterial infection; assay type: in vivo, ICR mice; settings: 1 mg/kg gavage, three times a day for 7 days, n = 10
Non-standard residues stand in square brackets, D forms with d. Residues, ends and D or L forms follow the SMILES beside them. dPhe(3,4-F2) = N[C@H](Cc1ccc(F)c(F)c1)C(=O)O; d2Nal = N[C@H](Cc1ccc2ccccc2c1)C(=O)O
measured-metric: Number of mice that died on each day after infection: day 8 (Mouse)
Could you give me the number in Mouse? Just the number is fine.

Challenge: Look up and report measured Number of mice that died on each day after infection: day 8 for this entry: CC(=O)N[C@H](CCCNC(=N)N)C(=O)N[C@H](CCCCN)C(=O)N[C@H](CC(C)C)C(=O)N[C@H](CC(C)C)C(=O)N[C@H](Cc1ccccc1)C(=O)N[C@H](CCCNC(=N)N)C(=O)N[C@H](CC(C)C)C(=O)N[C@H](CCCCN)C(=O)N[C@H](Cc1ccc2ccccc2c1)C(=O)N[C@H](CCCNC(=N)N)C(=O)N[C@H](CCCCN)C(N)=O [LV-3] (Ac-[dR][dK][dL][dL][dF][dR][dL][dK][d2Nal][dR][dK]-NH2)
Response given: 1

Challenge: Provide only the value of recorded Number of mice that died on each day after infection: day 8 for CC(=O)N[C@H](CCCNC(=N)N)C(=O)N[C@H](CCCNC(=N)N)C(=O)N[C@H](CC(C)C)C(=O)N[C@H](CC(C)C)C(=O)N[C@H](Cc1ccc2ccccc2c1)C(=O)N[C@H](CCCNC(=N)N)C(=O)N[C@H](CC(C)C)C(=O)N[C@H](CCCCN)C(=O)N[C@H](Cc1ccc2ccccc2c1)C(=O)N[C@H](CCCNC(=N)N)C(=O)N[C@H](CCCCN)C(N)=O [LV-21] (Ac-[dR][dR][dL][dL][d2Nal][dR][dL][dK][d2Nal][dR][dK]-NH2)
Response given: 1

Challenge: Identify the reported Number of mice that died on each day after infection: day 8 for the following entry. CC(=O)N[C@H](CCCCN)C(=O)N[C@H](CCCCN)C(=O)N[C@H](CC(C)C)C(=O)N[C@H](CC(C)C)C(=O)N[C@H](Cc1ccc(F)c(F)c1)C(=O)N[C@H](CCCNC(=N)N)C(=O)N[C@H](CC(C)C)C(=O)N[C@H](CCCCN)C(=O)N[C@H](Cc1ccc(F)c(F)c1)C(=O)N[C@H](CCCNC(=N)N)C(=O)N[C@H](CCCCN)C(N)=O [LV-25] (Ac-[dK][dK][dL][dL][dPhe(3,4-F2)][dR][dL][dK][dPhe(3,4-F2)][dR][dK]-NH2)
Response given: 1
